# credit: patent US7038085B2

ASSAYED SYSTEM: Serotonin Uptake (Homo sapiens, UniProt P31645)
Sequence (P31645 whole entry): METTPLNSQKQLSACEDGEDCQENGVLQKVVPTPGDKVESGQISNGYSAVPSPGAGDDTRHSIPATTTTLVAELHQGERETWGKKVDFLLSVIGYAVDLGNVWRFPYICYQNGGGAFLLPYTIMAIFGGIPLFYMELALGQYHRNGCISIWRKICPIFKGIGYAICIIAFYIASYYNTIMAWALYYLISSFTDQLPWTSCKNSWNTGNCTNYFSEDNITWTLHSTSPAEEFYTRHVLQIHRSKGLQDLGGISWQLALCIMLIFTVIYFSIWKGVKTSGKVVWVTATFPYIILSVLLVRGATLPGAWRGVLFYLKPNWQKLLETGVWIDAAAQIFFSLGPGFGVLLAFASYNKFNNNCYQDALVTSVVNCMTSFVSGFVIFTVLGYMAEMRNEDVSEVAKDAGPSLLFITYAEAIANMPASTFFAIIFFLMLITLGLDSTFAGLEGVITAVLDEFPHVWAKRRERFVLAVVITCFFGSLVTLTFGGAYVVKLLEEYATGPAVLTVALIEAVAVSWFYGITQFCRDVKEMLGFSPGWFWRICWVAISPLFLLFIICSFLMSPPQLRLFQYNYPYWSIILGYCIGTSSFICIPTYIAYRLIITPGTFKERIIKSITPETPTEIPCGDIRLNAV
ASSAY DETAILS: Inhibition of cellular Serotonin Uptake (cat. 364000)
SETTINGS: cellular uptake, FIG. 61
We begin with a simple list: items and their reported IC50.

[
  {
    "MOLECULE": "CCN(CC)C(=O)[C@]1(c2ccc(O)cc2)C[C@@H]1CN.Cl [CS1714]",
    "UNIT INFO": "µM",
    "IC50": 0.0403
  },
  {
    "MOLECULE": "CCN(CC)C(=O)[C@@]1(c2ccc(O)cc2)C[C@H]1CN [CS1713]",
    "UNIT INFO": "µM",
    "IC50": 0.022
  },
  {
    "MOLECULE": "CCN(CC)C(=O)C1(c2ccc(O)cc2)CC1CN (racemic) [CS1814]",
    "UNIT INFO": "µM",
    "IC50": 0.0217
  }
]

----------
ASSAYED SYSTEM: Norepinephrine Transporter (NET) (Homo sapiens)
Sequence (P23975 whole entry): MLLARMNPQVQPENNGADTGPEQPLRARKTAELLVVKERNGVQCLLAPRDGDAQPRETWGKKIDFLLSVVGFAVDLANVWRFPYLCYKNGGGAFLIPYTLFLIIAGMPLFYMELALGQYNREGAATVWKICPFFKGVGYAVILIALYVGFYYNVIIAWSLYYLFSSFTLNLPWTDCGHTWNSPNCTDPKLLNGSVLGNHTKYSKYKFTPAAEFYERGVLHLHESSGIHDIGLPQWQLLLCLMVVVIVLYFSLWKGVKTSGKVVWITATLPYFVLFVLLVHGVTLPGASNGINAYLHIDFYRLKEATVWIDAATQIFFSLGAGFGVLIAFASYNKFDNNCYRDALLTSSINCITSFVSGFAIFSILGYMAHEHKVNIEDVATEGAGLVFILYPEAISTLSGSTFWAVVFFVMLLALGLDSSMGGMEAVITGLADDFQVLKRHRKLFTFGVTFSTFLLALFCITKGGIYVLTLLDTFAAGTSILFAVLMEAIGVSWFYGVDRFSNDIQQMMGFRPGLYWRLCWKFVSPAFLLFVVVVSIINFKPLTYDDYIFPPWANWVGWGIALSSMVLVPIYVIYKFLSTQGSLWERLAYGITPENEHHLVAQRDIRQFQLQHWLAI

[
  {
    "COMPOUND": "CCN(CC)C(=O)C1(c2ccc(O)cc2)CC1CN (racemic) [CS1814]",
    "ASSAYED SYSTEM": "Norepinephrine Transporter (NET) (Homo sapiens)",
    "UNIT INFO": "nM",
    "IC50": 220
  }
]

----------
ASSAYED SYSTEM: Serotonin Transporter (SERT) (Homo sapiens, UniProt P31645)
Sequence (P31645 whole entry): as the sequence (P31645 whole entry) above
ASSAY DETAILS: Transporter, Serotonin (5-Hydroxytryptamine) (SERT) radioligand binding (cat. 274020)
SETTINGS: human recombinant HEK-293 cells, [125I] RTI-55; Ki by Cheng and Prusoff; read-out: Ki, displacement of radioligand from Serotonin Transporter binding sites
Overview of recorded Ki for various molecules
VALUE KIND: Ki (nM)

[
  {
    "MOLECULE": "CCN(CC)C(=O)[C@@]1(c2ccc(O)cc2)C[C@H]1CN",
    "ASSAYED SYSTEM": "Serotonin Transporter (SERT) (Homo sapiens, UniProt P31645)",
    "VALUE KIND": "Ki",
    "MEASURED RESULT": 3.88
  },
  {
    "MOLECULE": "CCN(CC)C(=O)C1(c2ccc(O)cc2)CC1CN (racemic)",
    "ASSAYED SYSTEM": "Serotonin Transporter (SERT) (Homo sapiens, UniProt P31645)",
    "VALUE KIND": "Ki",
    "MEASURED RESULT": 6.73
  },
  {
    "MOLECULE": "CCN(CC)C(=O)[C@]1(c2ccc(O)cc2)C[C@@H]1CN.Cl",
    "ASSAYED SYSTEM": "Serotonin Transporter (SERT) (Homo sapiens, UniProt P31645)",
    "VALUE KIND": "Ki",
    "MEASURED RESULT": 8.15
  }
]
